Cited source for all entries: ChEMBL document CHEMBL1125615

target: UniProt:P15121; assay: Inhibitory activity measured in vitro against human placental aldose reductase at a concentration of 10e-5 M
measure.name: inhibition (%)
Respond with the bare value in %.

CC(C)(C)OC(=O)C1=C(O)C(=O)N(Cc2cccs2)C1 ... 9
CCOC(=O)C1=C(O)C(=O)N(c2cccc3ccccc23)C1 ... 36
CCOC(=O)C1=C(O)C(=O)N(CC2CCCCC2)C1 ... 64
CC(C)(C)OC(=O)C1=C(O)C(=O)N(Cc2ccccc2)C1 ... 27
CCOC(=O)C1=C(O)C(=O)N(c2ccccc2)C1 ... 28

Consider the additional compound presented here.
### Prompt API: value(readout=inhibition, system=UniProt:P15121) for record CCOC(=O)C1=C(O)C(=O)N(C2CCCCC2)C1
### Response 22

====

test: Physicochemical property was determined; type: ADME
Listed here: items and their measured pKa.
Just the number, please, no unit after it.

These solved cases illustrate the format of a correct answer.
CS(=O)(=O)C1CN(Cc2ccccc2)C(=O)C1=O (stereo not drawn) ... 5.1
CSC1CN(Cc2ccccc2)C(=O)C1=O (stereo not drawn) ... 7.3

We next turn to a different molecule, shown below.
### Prompt Please give the measured pKa for this molecule: CC1CN(Cc2ccccc2)C(=O)C1=O (stereo not drawn)
### Response 10.6

====

target: Aldo-keto reductase family 1 member B1 (Homo sapiens, UniProt P15121)
measure.name: pIC50
Value format note: pIC50 is -log10 of concentration (mol/L); just state the number.

Record excerpt, results attached:
CCCOC(=O)C1=C(O)C(=O)N(Cc2ccccc2)C1 ... 5.72
CCOC(=O)C1=C(O)C(=O)N(CCc2ccccc2)C1 ... 5.60
CCOC(=O)C1=C(O)C(=O)N(Cc2ccccc2Cl)C1 ... 5.64
CCOC(=O)C1=C(O)C(=O)N([C@@H](C)c2ccccc2)C1 ... 5.92
CCOC(=O)C1=C(O)C(=O)N(Cc2ccco2)C1 ... 5.48
CCOC(=O)C1=C(O)C(=O)N(Cc2cccc3ccccc23)C1 ... 5.64
CCOC(=O)C1=C(O)C(=O)N(Cc2cccs2)C1 ... 6.42

Continue with the next compound.
### Prompt Item under review: CCOC(=O)C1=C(O)C(=O)N(Cc2ccncc2)C1 . Reported pIC50?
### Response 6.70

====

assay: Inhibitory activity measured against pig kidney aldehyde reductase using 3-pyridinecarboxaldehyde as substrate
Reported Selectivity ratio values for a set of compounds
Lab note: record just the number, no unit beside it.

O=C(O)Cc1nn(Cc2ccc(Br)cc2F)c(=O)c2ccccc12 [PONALRESTAT] ... 71.4
CCCC(CCC)C(=O)O [VALPROATE SODIUM] ... 0.2
CC1(S(=O)(=O)O)CC(=O)c2ccccc2C1=O (centres undefined) [MENADIONE SULFUROUS ACID] ... 6

// switching to the query compound
### Prompt Value lookup for Selectivity ratio; key = O=C1NC(=O)C2(N1)c1ccccc1-c1ccc(F)cc12 (centres undefined) [ALCONIL]
### Response 0.1

====

molecular target: UniProt P07943; experiment: Inhibitory activity measured against rat lens aldose reductase using 3-pyridinecarboxaldehyde as substrate
Please note: IC50 exactly at 30 nM is Not fulfilled. Only values below 30 nM get Fulfilled.

Consider the worked cases shown below.
O=C(O)Cc1nn(Cc2ccc(Br)cc2F)c(=O)c2ccccc12 ... Fulfilled
CCCC(CCC)C(=O)O [VALPROATE SODIUM] ... Not fulfilled
O=C1NC(=O)C2(N1)c1ccccc1-c1ccc(F)cc12 (stereo unspecified) ... Not fulfilled
COc1ccc2c(C(=S)N(C)CC(=O)O)cccc2c1C(F)(F)F ... Fulfilled

### Prompt Quick check: does CCOC(=O)C1C(=O)C(=O)NC12CCOc1ccc(F)cc12 (stereo unspecified) have IC50 under 30 nM?
### Response Not fulfilled

### Prompt Bench note: check whether CC1(S(=O)(=O)O)CC(=O)c2ccccc2C1=O (stereo unspecified) shows IC50 below 30 nM
### Response Not fulfilled
